# SYSTEM: IRAK-4 (Homo sapiens, UniProt Q9NWZ3)
# Sequence (Q9NWZ3 whole entry): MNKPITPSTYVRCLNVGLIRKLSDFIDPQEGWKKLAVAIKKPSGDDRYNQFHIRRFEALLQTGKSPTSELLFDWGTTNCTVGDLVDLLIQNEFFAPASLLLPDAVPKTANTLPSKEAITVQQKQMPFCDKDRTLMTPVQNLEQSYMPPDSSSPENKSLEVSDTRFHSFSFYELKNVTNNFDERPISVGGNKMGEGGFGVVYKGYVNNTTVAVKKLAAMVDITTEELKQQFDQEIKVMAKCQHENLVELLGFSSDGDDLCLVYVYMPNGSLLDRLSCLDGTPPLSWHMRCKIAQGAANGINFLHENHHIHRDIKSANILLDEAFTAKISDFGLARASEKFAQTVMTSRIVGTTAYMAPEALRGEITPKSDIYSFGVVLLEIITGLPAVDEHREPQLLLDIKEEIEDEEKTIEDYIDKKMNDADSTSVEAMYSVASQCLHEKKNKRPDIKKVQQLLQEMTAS
# METHOD: IRAK-4 ELISA, PBMC degradation
# Assay type: cell-based
# Parameters: endogenous in cells; host or cells: PBMC
# ASSAY_CONDITIONS: treated overnight
READOUT_KIND: DC50

compound="O=C1CCC(N2Cc3cc(N4CC(N5CCC(n6cc7cc(NC(=O)c8cnn9cccnc89)c(OCC8CC8)cc7n6)CC5)C4)ccc3C2=O)C(=O)N1 (centres unmarked) [Example 283]" measured_value="< 1 nM"
compound="CC(C)Oc1cc2nn([C@H]3CC[C@H](NCC4(F)CN(c5ccc6c(c5)C(=O)N(C5CCC(=O)NC5=O)C6=O)C4)CC3)cc2cc1NC(=O)c1cnn2cccnc12 (some centres unmarked) [Example 348]" measured_value="< 1 nM"
compound="O=C1CCC(N2C(=O)c3ccc(N4CCC(COCCN5Cc6cc(NC(=O)c7cnn8cccnc78)c(N7CCOCC7)cc6C5=O)CC4)cc3C2=O)C(=O)N1 (centres unmarked) [Example 95]" measured_value="< 1 nM"
compound="CCN(C1CN(c2ccc3c(c2)C(=O)N(C2CCC(=O)NC2=O)C3=O)C1)[C@H]1CC[C@H](n2cc3cc(NC(=O)c4cnn5cccnc45)c(OC(C)C)cc3n2)CC1 (some centres unmarked) [Example 319]" measured_value="1 to 5 nM"
compound="COc1cc2nn([C@H]3CC[C@H](N(C)C4CN(c5ccc6c(c5)CN(C5CCC(=O)NC5=O)C6=O)C4)CC3)cc2cc1NC(=O)c1cnn2cccnc12 (some centres unmarked) [Example 337]" measured_value="1 to 5 nM"

Where these numbers come from: patent US20230099344A1
